- assay.system: T1, Fus1, P11710
- T1 sequence (P11710 432-512, looked up): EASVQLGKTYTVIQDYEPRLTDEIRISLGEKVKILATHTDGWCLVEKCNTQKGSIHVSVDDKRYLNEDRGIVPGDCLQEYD
- assay.notes: SPOT array
- reported.conditions: median of control spots 1200
readout.type: SPOT intensity

binder: YSRKKLPVVLSKMTL
SPOT intensity: 2

binder: WRPRIVPILPYITRL
SPOT intensity: 8

binder: RSRRSSFAYPQQVAI
SPOT intensity: 26

binder: TPEIPPPLPPKIMVH
SPOT intensity: 0

binder: TIRRRAPLSLLESHT
SPOT intensity: 3

binder: RVTRKRPREPKSTND
SPOT intensity: 34

binder: NNFYRPLLRSVLVLL
SPOT intensity: 13

binder: LKRITSPPLPPRADS
SPOT intensity: 0

binder: RSVKRPRRAPRPVVS
SPOT intensity: 19

binder: DRIRMFIRFPKFLLE
SPOT intensity: 39

[a] DLPLPDLPPEPPTEL
[b] VRVKKRPLIRPLNSS
Identify the entry with the larger SPOT intensity. Options: a and b # reply format: chosen label
b
